System: Bacillus subtilis
METHOD_DESCRIPTION: Antibacterial activity against Bacillus subtilis NCIM 2010 at 3 ug/ml measured after 12 hrs by spectrophotometric method
Format: functional
EXPERIMENTAL_SETUP: NCIM 2010, 12 h
Criterion: inhibition at 3 µg/mL meeting or surpassing 80%. Met: T. Not met: F.

Query: Decide: is the reported value of inhibition at 3 µg/mL for "COCC(=O)NC[C@H]1CN(c2ccc(N3CC4(COC4)C3)c(F)c2)C(=O)O1" equal to or greater than 80%?
Reply: F

Query: Item: CC(=O)N1CCC2(C1)CN(c1ccc(N3CCOCC3)c(F)c1)C(=O)O2 (stereo not drawn)
Reply: F

Query: Item: "NC[C@H]1CN(c2ccc(N3CC4(COC4)C3)c(F)c2)C(=O)O1"
Reply: F

Query: Item: "O=C(NC[C@H]1CN(c2ccc(N3CC4(COC4)C3)c(F)c2)C(=O)O1)Nc1ccc(Cl)cc1"
Reply: F

Query: Item: "O=C1O[C@@H](CNS(=O)(=O)c2ccc(Cl)s2)CN1c1ccc(N2CC3(COC3)C2)c(F)c1"
Reply: T

Query: Item: "CC(=O)NC[C@H]1CN(c2ccc(C3=C[C@H]4CC[C@@H](C3)N4C(=O)OC(C)(C)C)c(F)c2)C(=O)O1"
Reply: T

Query: Item: "CC(C)(C)NC(=S)NC[C@H]1CN(c2ccc(N3CC4(COC4)C3)c(F)c2)C(=O)O1"
Reply: F

Query: Item: "O=C1O[C@@H](CNC(=S)Nc2ccc([N+](=O)[O-])cc2)CN1c1ccc(N2CC3(COC3)C2)c(F)c1"
Reply: F

Query: Item: "O=C1O[C@@H](CNS(=O)(=O)c2cccc(C(F)(F)F)c2)CN1c1ccc(N2CC3(COC3)C2)c(F)c1"
Reply: F

Query: Item: "O=C1O[C@@H](CNS(=O)(=O)c2cc(Cl)cc(Cl)c2)CN1c1ccc(N2CC3(COC3)C2)c(F)c1"
Reply: F

Query: Item: "O=C(NC[C@H]1CN(c2ccc(N3CC4(COC4)C3)c(F)c2)C(=O)O1)c1cccnc1"
Reply: F

Query: Item: O=C1OC2(CCNC2)CN1c1ccc(N2CCOCC2)c(F)c1 (stereo not drawn)
Reply: F

Query: Item: "O=C(NC[C@H]1CN(c2ccc(N3CC4(COC4)C3)c(F)c2)C(=O)O1)c1ccno1"
Reply: T

Query: Item: "CC(=O)OCC(=O)NC[C@H]1CN(c2ccc(N3CC4(COC4)C3)c(F)c2)C(=O)O1"
Reply: F

Query: Item: "CC(=O)NC[C@H]1CN(c2ccc(N3CCOCC3)c(F)c2)C(=O)O1"
Reply: T
